Tested on: HL-60(TB) leukemia
Experiment: NCI tumour cell line growth inhibition, 48 h
TGI reference
Use µM as the unit, but write only the number.

Recorded results for 4 compounds are shown here.
> print(dat)
                                   compound  value.observed
1  COc1ccc(N=C(SSC(=Nc2ccc(OC)cc2)c2ccc([N+](=O)[O-])o2)c2ccc([N+](=O)[O-])o2)cc1            7.07
2  CC1=C2[C@@H](c3ccccc3)C3C=CC2(C=C3C(F)(F)F)N(C(=O)NC2CCCCC2)C1=O (some centres undefined)            39.2
3  Cc1c(N(Cc2ccccc2)Cc2ccccc2)nc(S(C)(=O)=O)nc1S(C)(=O)=O            4.28
4  Cc1cccc(Cc2cnc(NC(=O)CCCOc3ccc(Cl)cc3)s2)c1             5.1

Now take the following compound into account.
(Q) // fetch TGI; item: CC(=O)OC1CCC2(C)C(=CCC3C4CC(CN5CC5)C(=O)C4(C)CCC32)C1 (centres undefined) ; system: HL-60(TB) leukemia
(A) 16.8

These measurements were taken from PubChem BioAssay (NCI).
